Experimental System: Biosimilar (BS) bapineuzumab
Sequence (chain, as listed by the source, chain 1 of 2): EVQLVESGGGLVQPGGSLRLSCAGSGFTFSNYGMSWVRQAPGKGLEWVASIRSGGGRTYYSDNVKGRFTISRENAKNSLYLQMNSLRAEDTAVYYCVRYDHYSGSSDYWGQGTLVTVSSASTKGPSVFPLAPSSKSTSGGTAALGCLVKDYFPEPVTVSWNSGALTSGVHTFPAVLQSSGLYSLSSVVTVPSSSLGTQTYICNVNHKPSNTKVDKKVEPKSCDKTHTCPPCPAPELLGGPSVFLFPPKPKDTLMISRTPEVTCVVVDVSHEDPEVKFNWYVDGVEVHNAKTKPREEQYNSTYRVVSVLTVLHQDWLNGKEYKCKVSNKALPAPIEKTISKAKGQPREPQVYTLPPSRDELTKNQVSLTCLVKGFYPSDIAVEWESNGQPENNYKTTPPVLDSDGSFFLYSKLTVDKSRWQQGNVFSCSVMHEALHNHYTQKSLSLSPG
Sequence (chain, as listed by the source, chain 2 of 2): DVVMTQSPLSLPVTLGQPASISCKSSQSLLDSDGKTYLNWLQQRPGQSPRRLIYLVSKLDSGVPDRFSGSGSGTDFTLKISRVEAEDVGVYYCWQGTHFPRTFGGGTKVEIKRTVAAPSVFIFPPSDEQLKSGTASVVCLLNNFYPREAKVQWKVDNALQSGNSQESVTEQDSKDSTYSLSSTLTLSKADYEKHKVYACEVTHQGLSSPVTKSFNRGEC
Assay Comment: MSD inhibition assay, abeta 1-28 coated plates
Readout Label: IC50

What the record says about abeta 1-12 trimer construct, P05067 672-683; P05067 672-683; P05067 672-683 (modifications not checked) peptide: DAEFRHDSGYEVGGGGGGGGDAEFRHDSGYEVGGGGGGGGDAEFRHDSGYEV : IC50 is 19 nM
